Tested on: HCI-003.E2 (organoid from an ER-positive breast cancer xenograft)
EXPERIMENT_NOTES: CTG-3D luminescence at 96 h relative to day-0 seeding control (ratio to day 0); higher = more growth / less cytotoxicity; PDxO 3D drug screen, 96 h, CTG-3D normalised to day-0 seeding control.
EXPERIMENTAL_CONTEXT: 0.1 µM
MEASURED_QUANTITY: CTG-3D luminescence at 96 h
Just the number, please, no unit attached.

// below: answered compounds
>  <COMPOUND>
COc1cc2c(Oc3ccc4[nH]c(C)cc4c3F)ncnc2cc1OCCCN1CCCC1

>  <EXPERIMENTAL_VALUE>
2.33

$$$$
>  <COMPOUND>
NC(=O)Nc1cc(-c2cccc(F)c2)sc1C(=O)N[C@H]1CCCNC1

>  <EXPERIMENTAL_VALUE>
1.78

$$$$
>  <COMPOUND>
CC1(C)CCC(c2ccc(Cl)cc2)=C(CN2CCN(c3ccc(C(=O)NS(=O)(=O)c4ccc(N[C@H](CCN5CCOCC5)CSc5ccccc5)c(S(=O)(=O)C(F)(F)F)c4)cc3)CC2)C1

>  <EXPERIMENTAL_VALUE>
2.22

$$$$
>  <COMPOUND>
NC1(C(=O)N[C@@H](CCO)c2ccc(Cl)cc2)CCN(c2nc[nH]c3nccc2-3)CC1

>  <EXPERIMENTAL_VALUE>
1.76

$$$$
>  <COMPOUND>
O=C(O)C1(C(=O)O)CCC1.[NH2-].[NH2-].[Pt+2]

>  <EXPERIMENTAL_VALUE>
2.23

$$$$
>  <COMPOUND>
C=CCn1c(=O)c2cnc(Nc3ccc(N4CCN(C)CC4)cc3)nc2n1-c1cccc(C(C)(C)O)n1

>  <EXPERIMENTAL_VALUE>
2.28

$$$$

Switching to the query record.
Endpoint output: CTG-3D luminescence at 96 h of C[C@@H]1COCCN1c1cc(C2([S@](C)(=N)=O)CC2)nc(-c2cc[nH]c3nccc2-3)n1 . Value? 2.45

----------
System: HCI-001 (organoid from a triple-negative breast cancer xenograft)
EXPERIMENT_NOTES: CTG-3D luminescence at 96 h relative to day-0 seeding control (ratio to day 0); higher = more growth / less cytotoxicity; PDxO 3D drug screen (set 2), 96 h, CTG-3D normalised to day-0 seeding control.
EXPERIMENTAL_CONTEXT: 1 µM; days in culture: 401
Label rule, in plain words: CTG-3D luminescence at 96 h of 1 and up is Condition met, under 1 is Condition not met.

Solved cases below.
>  <COMPOUND>
Cc1c(CN2CCN(C(=O)[C@H](C)O)CC2)sc2c(N3CCOCC3)nc(-c3cnc(N)nc3)nc12

>  <GROUP>
Condition not met

$$$$
>  <COMPOUND>
C[C@@H](Nc1cc(F)cc(F)c1)c1cc(C(=O)N(C)C)cc2c(=O)cc(N3CCOCC3)oc12

>  <GROUP>
Condition met

$$$$

Next compound, please.
Check this compound for CTG-3D luminescence at 96 h at or above 1: COc1cccc2c1C(=O)c1c(O)c3c(c(O)c1C2=O)C[C@@](O)(C(=O)CO)C[C@@H]3O[C@H]1C[C@H](N)[C@@H](O)[C@H](C)O1 [epirubicin] Condition not met

----------
# CTG-3D luminescence at 96 h values compiled below
System: HCI-024 (organoid from a breast cancer xenograft)
EXPERIMENT_NOTES: CTG-3D luminescence at 96 h relative to day-0 seeding control (ratio to day 0); higher = more growth / less cytotoxicity; PDxO 3D drug screen, 96 h, CTG-3D normalised to day-0 seeding control.
EXPERIMENTAL_CONTEXT: 10 µM; days in culture: 105
Just the number, please, no unit attached.

// below: answered compounds
>  <COMPOUND>
CCN(c1cc(C#CCN2CCOCC2)cc(C(=O)NCc2c(C)cc(C)[nH]c2=O)c1C)[C@H]1CC[C@H](N(C)CCOC)CC1

>  <MEASURED_QUANTITY>
CTG-3D luminescence at 96 h

>  <EXPERIMENTAL_VALUE>
2.22

$$$$
>  <COMPOUND>
Cc1nc(-c2cn3c(n2)-c2ccc(-c4cnn(C(C)(C)C(N)=O)c4)cc2OCC3)n(C(C)C)n1 [taselisib]

>  <MEASURED_QUANTITY>
CTG-3D luminescence at 96 h

>  <EXPERIMENTAL_VALUE>
0.981

$$$$
>  <COMPOUND>
COc1cccc2c1C(=O)c1c(O)c3c(c(O)c1C2=O)C[C@@](O)(C(=O)CO)C[C@@H]3O[C@H]1C[C@H](N)[C@H](O)[C@H](C)O1 [doxorubicin]

>  <MEASURED_QUANTITY>
CTG-3D luminescence at 96 h

>  <EXPERIMENTAL_VALUE>
0.158

$$$$

Switching to the query record.
Endpoint output: CTG-3D luminescence at 96 h of CN(Cc1cnc2nc(N)nc(N)c2n1)c1ccc(C(=O)N[C@@H](CCC(=O)O)C(=O)O)cc1 [methotrexate] . Value? 2

----------
# CTG-3D luminescence at 96 h values compiled below
Test system: HCI-012 (organoid from a breast cancer xenograft)
EXPERIMENT_NOTES: CTG-3D luminescence at 96 h relative to day-0 seeding control (ratio to day 0); higher = more growth / less cytotoxicity; PDxO 3D drug screen, 96 h, CTG-3D normalised to day-0 seeding control.
EXPERIMENTAL_CONTEXT: 0.005 µM; days in culture: 201
Just the number, please, no unit attached.

// below: answered compounds
>  <COMPOUND>
C[C@H](NC(=O)CCC(F)(F)F)C(=O)N[C@@H]1C(=O)N(CCO)c2ncccc2-c2ccccc21

>  <MEASURED_QUANTITY>
CTG-3D luminescence at 96 h

>  <EXPERIMENTAL_VALUE>
1.82

$$$$
>  <COMPOUND>
C=CCn1c(=O)c2cnc(Nc3ccc(N4CCN(C)CC4)cc3)nc2n1-c1cccc(C(C)(C)O)n1

>  <MEASURED_QUANTITY>
CTG-3D luminescence at 96 h

>  <EXPERIMENTAL_VALUE>
1.6

$$$$
>  <COMPOUND>
CCc1c2c(nc3ccc(O)cc13)-c1cc3c(c(=O)n1C2)COC(=O)[C@]3(O)CC

>  <MEASURED_QUANTITY>
CTG-3D luminescence at 96 h

>  <EXPERIMENTAL_VALUE>
0.824

$$$$
>  <COMPOUND>
NC(=O)c1cccc2cn(-c3ccc([C@@H]4CCCNC4)cc3)nc12

>  <MEASURED_QUANTITY>
CTG-3D luminescence at 96 h

>  <EXPERIMENTAL_VALUE>
1.89

$$$$

Endpoint output: CTG-3D luminescence at 96 h of O=C(O)C1(C(=O)O)CCC1.[NH2-].[NH2-].[Pt+2] . Value? 1.46

Endpoint output: CTG-3D luminescence at 96 h of Cc1cc(Nc2ncc(Cl)c(Nc3ccccc3S(=O)(=O)C(C)C)n2)c(OC(C)C)cc1C1CCNCC1 . Value? 1.57

Endpoint output: CTG-3D luminescence at 96 h of CN(Cc1cnc2nc(N)nc(N)c2n1)c1ccc(C(=O)N[C@@H](CCC(=O)O)C(=O)O)cc1 [methotrexate] . Value? 1.57

Endpoint output: CTG-3D luminescence at 96 h of COc1cccc2c1C(=O)c1c(O)c3c(c(O)c1C2=O)C[C@@](O)(C(=O)CO)C[C@@H]3O[C@H]1C[C@H](N)[C@H](O)[C@H](C)O1 . Value? 1.7

----------
Tested on: HCI-019 (organoid from a triple-negative breast cancer xenograft)
EXPERIMENT_NOTES: CTG-3D luminescence at 96 h relative to day-0 seeding control (ratio to day 0); higher = more growth / less cytotoxicity; PDxO 3D drug screen, 96 h, CTG-3D normalised to day-0 seeding control.
EXPERIMENTAL_CONTEXT: 10 µM; days in culture: 131
Label rule, in plain words: CTG-3D luminescence at 96 h of 1 and up is 1, under 1 is -1.

Solved cases below.
>  <COMPOUND>
Nc1ccn([C@@H]2O[C@H](CO)[C@@H](O)C2(F)F)c(=O)n1

>  <TESTED_TARGET>
HCI-019

>  <GROUP>
-1

$$$$
>  <COMPOUND>
NC1(C(=O)N[C@@H](CCO)c2ccc(Cl)cc2)CCN(c2nc[nH]c3nccc2-3)CC1

>  <TESTED_TARGET>
HCI-019

>  <GROUP>
1

$$$$
>  <COMPOUND>
C[C@]12CC[C@@H]3c4ccc(O)cc4C[C@@H](CCCCCCCCC[S+]([O-])CCCC(F)(F)C(F)(F)F)[C@H]3[C@@H]1CC[C@@H]2O (stereo partly drawn)

>  <TESTED_TARGET>
HCI-019

>  <GROUP>
1

$$$$

Check this compound for CTG-3D luminescence at 96 h at or above 1: CCN(c1cc(C#CCN2CCOCC2)cc(C(=O)NCc2c(C)cc(C)[nH]c2=O)c1C)[C@H]1CC[C@H](N(C)CCOC)CC1 1

Check this compound for CTG-3D luminescence at 96 h at or above 1: CC(C)(C(=O)NCC(F)(F)C(F)(F)F)C(=O)N[C@@H]1C(=O)Nc2ccccc2-c2ccccc21 1

Check this compound for CTG-3D luminescence at 96 h at or above 1: CCc1c2c(nc3ccc(O)cc13)-c1cc3c(c(=O)n1C2)COC(=O)[C@]3(O)CC -1

Check this compound for CTG-3D luminescence at 96 h at or above 1: NC(=O)c1cccc2cn(-c3ccc([C@@H]4CCCNC4)cc3)nc12 1

Check this compound for CTG-3D luminescence at 96 h at or above 1: Cc1cc(Nc2ncc(Cl)c(Nc3ccccc3S(=O)(=O)C(C)C)n2)c(OC(C)C)cc1C1CCNCC1 -1

Attribution: the supplement of paper PMC8882468
